- measured.on: unphosphorylated VEGF-R2Δ50 (FLVK) (Homo sapiens, UniProt P35968, DEL940-989/E990V)
- Construct: VEGF-R2Δ50 contains residues 806-939 and 990-1171; made in house; host or cells: baculovirus/insect cells
- Sequence (P35968 with tags, fused parts or gaps DEL940-989/E990V limits assumed): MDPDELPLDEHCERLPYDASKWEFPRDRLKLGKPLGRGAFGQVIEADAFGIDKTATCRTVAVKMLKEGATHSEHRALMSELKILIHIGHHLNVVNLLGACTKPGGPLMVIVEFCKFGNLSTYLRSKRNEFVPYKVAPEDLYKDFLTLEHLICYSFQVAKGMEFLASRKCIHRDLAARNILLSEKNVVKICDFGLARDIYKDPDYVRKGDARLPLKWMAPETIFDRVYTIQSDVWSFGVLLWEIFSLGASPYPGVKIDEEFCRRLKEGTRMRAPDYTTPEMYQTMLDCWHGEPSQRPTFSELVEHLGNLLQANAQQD
- test.summary: VEGF-R2 coupled spectrophotometric assay, unphosphorylated enzyme (FLVK)
- Assay type: biochemical
- run.parameters: Table 3; at 50 nM
recorded.endpoint: inhibition at 0.05 µM (%)

P = COc1cccc(C(=O)Nc2cc(-c3noc(-c4sc(NC(C)C)nc4N)n3)c(F)cc2F)c1
Q = COc1cc(Nc2nc(N)c(-c3nc(-c4cc(N)ccc4F)no3)s2)cc(OC)c1OC
R = COc1cccc(C(=O)Nc2cc(-c3csc(-c4sc(NC(=O)NC[C@H]5CCCO5)nc4N)n3)c(F)cc2F)c1
S = COc1cc(F)c(-c2noc(-c3sc(Nc4cc(OC)c(OC)c(OC)c4)nc3N)n2)cc1NC(=O)OC(C)(C)C
Qu. Sort entries by inhibition at 0.05 µM from minimum to maximum value. Show the ranking through the labels, in the order asked for.
Ans. S, Q, R, P
(S: 0%, Q: 3%, R: 22%, P: 36%)
